- Experiment: Intrinsic clearance in mouse liver microsomes measured upto 60 mins by LC-MS/MS analysis
- Assay type: ADME, Microsome
- Condition notes: read-out: CLH
Assay readout: microsomal CLint (µL/min/mg)
# value in µL/min/mg; strip the unit string

Asked: Could you please provide reported microsomal CLint for "C[C@@H]1[C@@H](C)C/C=C/[C@H](O)[C@@H]2OCC[C@H]2CN2C[C@@]3(CCCc4cc(Cl)ccc43)COc3ccc(cc32)C(=O)NS1(=O)=O" ? Thanks!
Given back: 28

Asked: Could you please provide reported microsomal CLint for CO[C@H]1/C=C/C[C@H](C)[C@@H](C)S(=O)(=O)NC(=O)c2ccc3c(c2)N(C[C@@H]2CC[C@H]21)C[C@@]1(CCCc2cc(Cl)ccc21)CO3 [TAPOTOCLAX] ? Thanks!
Given back: 9.4

Asked: Could you please provide reported microsomal CLint for "CO[C@]1(CN2CCN3CCOC[C@@H]3C2)/C(F)=C/C[C@H](C)[C@@H](C)S(=O)(=O)NC(=O)c2ccc3c(c2)N(C[C@@H]2CCO[C@H]21)C[C@@]1(CCCc2cc(Cl)ccc21)CO3" ? Thanks!
Given back: 21

Asked: Could you please provide reported microsomal CLint for "CO[C@@H]1/C(F)=C/C[C@H](C)[C@@H](C)S(=O)(=O)NC(=O)c2ccc3c(c2)N(C[C@@H]2CCO[C@H]21)C[C@@]1(CCCc2cc(Cl)ccc21)CO3" ? Thanks!
Given back: 21

Asked: Could you please provide reported microsomal CLint for "COCCN(CCOC)C[C@]1(OC)/C(F)=C/C[C@H](C)[C@@H](C)S(=O)(=O)NC(=O)c2ccc3c(c2)N(C[C@@H]2CCO[C@H]21)C[C@@]1(CCCc2cc(Cl)ccc21)CO3" ? Thanks!
Given back: 28

----------
- Experiment: Volume of distribution at steady state in CD1 mouse at 1 mg/kg, iv administered as bolus dose
- Format: ADME, organism-based
- Condition notes: in vivo, read-out: Vdss
Assay readout: Vd (L/kg)
# value in L/kg; strip the unit string

Asked: Could you please provide reported Vd for "COc1nn(C)cc1C(=O)N[S@@]1(=O)=NC(=O)c2ccc3c(c2)N(C[C@@H]2CCO[C@H]2[C@@H](OC)/C(F)=C/C[C@H](C)C1)C[C@@]1(CCCc2cc(Cl)ccc21)CO3" ? Thanks!
Given back: 3.01

----------
Please provide measured chromatographic logD for the entries that follow.
- Experiment: Lipophilicity, CHI logP of compound at pH 7.4 by UPLC-TOF analysis
- Type: physicochemical
- Condition notes: buffer, read-out: logP
Quick one: just the number, no unit, thanks!

Asked: Could you please provide reported chromatographic logD for "COCCN(CCOC)C[C@]1(OC)/C(F)=C/C[C@H](C)[C@@H](C)S(=O)(=O)NC(=O)c2ccc3c(c2)N(C[C@@H]2CCO[C@H]21)C[C@@]1(CCCc2cc(Cl)ccc21)CO3" ? Thanks!
Given back: 3.9

Asked: Could you please provide reported chromatographic logD for "C[C@@H]1[C@@H](C)C/C=C(\F)[C@@](O)(CN2CCN3CCCC[C@@H]3C2)[C@@H]2OCC[C@H]2CN2C[C@@]3(CCCc4cc(Cl)ccc43)COc3ccc(cc32)C(=O)NS1(=O)=O" ? Thanks!
Given back: 2.9

Asked: Could you please provide reported chromatographic logD for "CO[C@]1(CN2CCN3CCCC[C@@H]3C2)/C=C/C[C@H](C)[C@@H](C)S(=O)(=O)NC(=O)c2ccc3c(c2)N(C[C@@H]2CC[C@H]21)C[C@@]1(CCCc2cc(Cl)ccc21)CO3" ? Thanks!
Given back: 3.9

Asked: Could you please provide reported chromatographic logD for "CO[C@]1(CN2CCN3CCOC[C@@H]3C2)/C(F)=C/C[C@H](C)[C@@H](C)S(=O)(=O)NC(=O)c2ccc3c(c2)N(C[C@@H]2CCO[C@H]21)C[C@@]1(CCCc2cc(Cl)ccc21)CO3" ? Thanks!
Given back: 3.5

Asked: Could you please provide reported chromatographic logD for "CO[C@@]1(CN2CCN3CCOC[C@@H]3C2)/C(F)=C/C[C@H](C)[C@H](C)S(=O)(=O)NC(=O)c2ccc3c(c2)N(C[C@@H]2CCO[C@H]21)C[C@@]1(CCCc2cc(Cl)ccc21)CO3" ? Thanks!
Given back: 3.3

Asked: Could you please provide reported chromatographic logD for "CO[C@@]1(CN2CCN3CCCC[C@@H]3C2)/C(F)=C/C[C@H](C)[C@@H](C)S(=O)(=O)NC(=O)c2ccc3c(c2)N(C[C@@H]2CCO[C@H]21)C[C@@]1(CCCc2cc(Cl)ccc21)CO3" ? Thanks!
Given back: 3

Asked: Could you please provide reported chromatographic logD for "CO[C@@]1(CN2CCN3CCOC[C@@H]3C2)/C(F)=C/C[C@H](C)[C@@H](C)S(=O)(=O)NC(=O)c2ccc3c(c2)N(C[C@@H]2CCO[C@H]21)C[C@@]1(CCCc2cc(Cl)ccc21)CO3" ? Thanks!
Given back: 2.9
